# Assay Overview: Lipophilicity, log P of the compound
# Assay type: physicochemical
# Particulars: octanol/water
Overview of reported logP across a group of compounds:
Give the value as a plain number.

OC[C@H]1O[C@@H](Sc2c(F)c(F)c(-c3c4nc(c(-c5c(F)c(F)c(S[C@@H]6O[C@H](CO)[C@@H](O)[C@H](O)[C@H]6O)c(F)c5F)c5ccc([nH]5)c(-c5c(F)c(F)c(S[C@@H]6O[C@H](CO)[C@@H](O)[C@H](O)[C@H]6O)c(F)c5F)c5nc(c(-c6c(F)c(F)c(F)c(F)c6F)c6ccc3[nH]6)C=C5)C=C4)c(F)c2F)[C@H](O)[C@@H](O)[C@@H]1O 2.99

--- query ---
Noted for OC[C@H]1O[C@@H](Sc2c(F)c(F)c(-c3c4nc(c(-c5c(F)c(F)c(F)c(F)c5F)c5ccc([nH]5)c(-c5c(F)c(F)c(S[C@@H]6O[C@H](CO)[C@@H](O)[C@H](O)[C@H]6O)c(F)c5F)c5nc(c(-c6c(F)c(F)c(F)c(F)c6F)c6ccc3[nH]6)C=C5)C=C4)c(F)c2F)[C@H](O)[C@@H](O)[C@@H]1O : its logP reads 3.53

Source of measurements: ChEMBL document CHEMBL1156898
